Numbers sourced from patent US20180099931A1.

system.name: F508delCFTR (Homo sapiens, UniProt P13569, DEL508-508)
Construct: expressed in transfected cells; host or cells: CFBE41o- human lung-derived epithelial cells (CFBE4lo-F508delCFTR-HRP), doxycycline-inducible
Sequence (P13569 with tags, fused parts or gaps DEL508-508): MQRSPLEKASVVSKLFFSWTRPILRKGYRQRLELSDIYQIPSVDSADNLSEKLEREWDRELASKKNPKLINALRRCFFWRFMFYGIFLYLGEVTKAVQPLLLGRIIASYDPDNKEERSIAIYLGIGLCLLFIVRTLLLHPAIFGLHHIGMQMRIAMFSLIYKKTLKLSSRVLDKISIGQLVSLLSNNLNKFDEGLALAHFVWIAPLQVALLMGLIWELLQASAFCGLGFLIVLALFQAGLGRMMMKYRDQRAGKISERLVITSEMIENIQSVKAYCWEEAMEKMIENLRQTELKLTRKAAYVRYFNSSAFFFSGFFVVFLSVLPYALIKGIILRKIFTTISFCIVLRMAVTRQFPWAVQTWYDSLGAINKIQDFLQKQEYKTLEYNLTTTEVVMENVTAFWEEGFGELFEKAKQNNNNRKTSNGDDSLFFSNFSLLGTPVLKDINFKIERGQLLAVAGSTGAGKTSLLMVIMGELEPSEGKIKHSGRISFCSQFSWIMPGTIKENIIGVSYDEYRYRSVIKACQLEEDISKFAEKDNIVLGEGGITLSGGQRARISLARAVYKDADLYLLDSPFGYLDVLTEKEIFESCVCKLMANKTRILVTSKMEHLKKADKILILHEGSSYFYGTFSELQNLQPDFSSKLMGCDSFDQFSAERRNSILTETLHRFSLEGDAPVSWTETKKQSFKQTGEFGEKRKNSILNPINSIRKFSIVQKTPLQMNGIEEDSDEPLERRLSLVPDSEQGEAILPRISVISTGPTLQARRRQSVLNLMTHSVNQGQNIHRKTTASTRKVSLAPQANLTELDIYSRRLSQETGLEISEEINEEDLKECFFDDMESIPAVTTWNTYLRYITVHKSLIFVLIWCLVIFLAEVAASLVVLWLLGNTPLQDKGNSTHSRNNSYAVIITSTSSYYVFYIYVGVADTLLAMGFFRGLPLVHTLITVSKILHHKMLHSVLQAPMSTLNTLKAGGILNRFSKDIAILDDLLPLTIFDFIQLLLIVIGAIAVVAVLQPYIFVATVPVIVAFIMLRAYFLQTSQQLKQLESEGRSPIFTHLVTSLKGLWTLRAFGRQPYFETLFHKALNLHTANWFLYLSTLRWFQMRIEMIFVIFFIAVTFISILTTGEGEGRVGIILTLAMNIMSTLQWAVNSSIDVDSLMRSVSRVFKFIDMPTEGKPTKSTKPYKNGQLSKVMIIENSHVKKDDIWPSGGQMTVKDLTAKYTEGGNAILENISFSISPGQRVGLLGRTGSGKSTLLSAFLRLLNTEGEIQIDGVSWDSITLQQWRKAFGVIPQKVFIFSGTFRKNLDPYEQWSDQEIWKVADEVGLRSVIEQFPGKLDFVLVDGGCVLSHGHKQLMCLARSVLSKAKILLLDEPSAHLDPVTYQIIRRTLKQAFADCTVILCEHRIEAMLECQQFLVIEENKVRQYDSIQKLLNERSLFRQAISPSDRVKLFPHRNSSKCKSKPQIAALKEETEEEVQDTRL
experiment: Cell Surface Expression-Horse Radish Peroxidase (CSE-HRP) Assay
Assay type: cell-based
condition.set: test compound without co-corrector; read-out: EC50 (without co-corrector)
recorded.metric: EC50

Sample answers from the record:
>>> df
                                   compound  observed_result
0  Cc1ccccc1CN[C@@H]1[C@@H](C(C)(C)C)[C@H](C(=O)O)N(C(=O)CC2CCCC2)[C@@H]1c1ccccc1 (racemic) [III-2]          > 10 µM
1  CC(C)(C)[C@H]1[C@H](Nc2nc(Cl)c(F)cc2C#N)[C@H](c2ccccc2)N(C(=O)C2CCCCC2)[C@@H]1C(=O)O [III-145]       1 to 10 µM
2  CC(C)(C)[C@@H]1[C@@H](Nc2cc(C(F)(F)F)cc[n+]2[O-])[C@@H](c2ccccc2)N(C(=O)C2CCCCC2)[C@H]1C(=O)O (racemic) [III-31]          > 10 µM

Prompt line: Returns the measured EC50 for the input compound. Input: COCCOc1ncc(C(F)(F)F)cc1CN[C@@H]1[C@@H](C(C)(C)C)[C@H](C(=O)O)N(C(=O)C2CCCCC2)[C@@H]1c1ccccc1 (racemic) [III-80]
Response line: > 10 µM

Prompt line: Returns the measured EC50 for the input compound. Input: CC(C)(C)[C@H]1[C@H](NCC2(c3ccc4c(c3)OC(F)(F)O4)CC2)[C@H](c2ccccc2)N(C(=O)C2CCCCC2)[C@@H]1C(=O)O [II-499]
Response line: 1 to 10 µM

Prompt line: Returns the measured EC50 for the input compound. Input: COc1ncc(-c2ccc(C)cc2)cc1CN[C@H]1[C@H](C(C)(C)C)[C@@H](C(=O)O)N(C(=O)C2CCCCC2)[C@H]1c1cccnc1N(C)C [II-410]
Response line: < 1 µM
